Attribution: PubChem BioAssay AID2060508

Reported IC50 by item:
# System: 454973-116-R2-J3-PDC spheroids, viability, % test/control
# assay comment: Anticancer human tumor 454973-116-R2-J3-PDC patient-derived pancreatic carcinoma cell line growth inhibition [GQUAD]
# condition: curve of first compound; second compound 0.316 µM; spheroids with HUVEC and MSC
measurement name: IC50 (nM)

[[record]]
compound = "CC1COCCN1c1cc(C2(O)CC3CCC(C2)O3)c2cnn(-c3ccn[nH]3)c2n1 (stereo not given) + CN(C)c1ccc(Nc2c3ccc(NC(=O)CCN4CCCC4)cc3nc3cc(NC(=O)CCN4CCCC4)ccc23)cc1"
target_system = "454973-116-R2-J3-PDC spheroids, viability, % test/control"
measurement_name = "IC50"
quantity_unit = "nM"
reported_relation = "="
endpoint_result = 154

[[record]]
compound = "Cn1ncnc1[C@H]1c2n[nH]c(=O)c3cc(F)cc(c23)N[C@@H]1c1ccc(F)cc1 + Cc1cnc(CNC(=O)c2c(=O)c3ccc(N4CCCN(C)CC4)nc3n3c2sc2ccccc23)cn1"
target_system = "454973-116-R2-J3-PDC spheroids, viability, % test/control"
measurement_name = "IC50"
quantity_unit = "nM"
reported_relation = "="
endpoint_result = 51.8

[[record]]
compound = "CC1COCCN1c1cc(-c2ccnn2C)c2ccnc(-c3ccn[nH]3)c2n1 (stereo not given) + Cc1cnc(CNC(=O)c2c(=O)c3ccc(N4CCCN(C)CC4)nc3n3c2sc2ccccc23)cn1"
target_system = "454973-116-R2-J3-PDC spheroids, viability, % test/control"
measurement_name = "IC50"
quantity_unit = "nM"
reported_relation = "<"
endpoint_result = 31.6

[[record]]
compound = "CC(C)n1c(=O)n(C)c2cnc3cc(F)c(-c4ccc(OCCCN5CCCCC5)nc4)cc3c21 + CN(C)c1ccc(Nc2c3ccc(NC(=O)CCN4CCCC4)cc3nc3cc(NC(=O)CCN4CCCC4)ccc23)cc1"
target_system = "454973-116-R2-J3-PDC spheroids, viability, % test/control"
measurement_name = "IC50"
quantity_unit = "nM"
reported_relation = ">"
endpoint_result = 10000

[[record]]
compound = "CCCS(=O)(=O)Nc1ccc(F)c(C(=O)c2c[nH]c3ncc(-c4ccc(Cl)cc4)cc23)c1F + Cc1[nH]c2ccc(F)cc2c1-c1nc2c3cccnc3c3ncccc3c2[nH]1"
target_system = "454973-116-R2-J3-PDC spheroids, viability, % test/control"
measurement_name = "IC50"
quantity_unit = "nM"
reported_relation = "="
endpoint_result = 6270


====

# Test system: 454973-116-R2-J3-PDC spheroids, viability, % test/control
# assay comment: Anticancer human tumor 454973-116-R2-J3-PDC cell line growth inhibition [GQUAD]; active means viability on the fitted dose curve at most 10% of control; inactive means the rest;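 also: spheroids exposed to compounds for seven days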
# condition: second compound 3.16 µM; first compound 3.16 µM; spheroids with HUVEC and MSC
Possible outcomes: y (active), n (inactive)

[[record]]
molecule = "C=CCn1c(=O)c2cnc(Nc3ccc(N4CCN(C)CC4)cc3)nc2n1-c1cccc(C(C)(C)O)n1 + Cc1cnc(CNC(=O)c2c(=O)c3ccc(N4CCCN(C)CC4)nc3n3c2sc2ccccc23)cn1"
answer_label = "n"

[[record]]
molecule = "COc1cccc2c1C(=O)c1c(O)c3c(c(O)c1C2=O)CC(O)(C(=O)CO)CC3OC1CC(N)C(O)C(C)O1 (stereo not drawn) + Cc1[nH]c2ccc(F)cc2c1-c1nc2c3cccnc3c3ncccc3c2[nH]1"
answer_label = "n"

[[record]]
molecule = "CCCS(=O)(=O)Nc1ccc(F)c(C(=O)c2c[nH]c3ncc(-c4ccc(Cl)cc4)cc23)c1F + Cc1[nH]c2ccc(F)cc2c1-c1nc2c3cccnc3c3ncccc3c2[nH]1"
answer_label = "n"

[[record]]
molecule = "CC1COCCN1c1cc(C2(O)CC3CCC(C2)O3)c2cnn(-c3ccn[nH]3)c2n1 (stereo not drawn) + Cc1cnc(CNC(=O)c2c(=O)c3ccc(N4CCCN(C)CC4)nc3n3c2sc2ccccc23)cn1"
answer_label = "n"

[[record]]
molecule = "Cc1cccc(N(C)C(=O)C2C(O)CCN2c2nc(C)cc(C(F)(F)F)c2C#N)c1 (stereo not drawn) + Cc1cnc(CNC(=O)c2c(=O)c3ccc(N4CCCN(C)CC4)nc3n3c2sc2ccccc23)cn1"
answer_label = "n"

[[record]]
molecule = "O=C(c1cc(Cc2n[nH]c(=O)c3ccccc23)ccc1F)N1CCN(C(=O)C2CC2)CC1 + Cc1[nH]c2ccc(F)cc2c1-c1nc2c3cccnc3c3ncccc3c2[nH]1"
answer_label = "n"

[[record]]
molecule = "O=C(NO)c1cnc(N2CCN(S(=O)(=O)c3ccc4ccccc4c3)CC2)nc1 + CN(C)c1ccc(Nc2c3ccc(NC(=O)CCN4CCCC4)cc3nc3cc(NC(=O)CCN4CCCC4)ccc23)cc1"
answer_label = "y"

[[record]]
molecule = "CC1COCCN1c1cc(C2(O)CC3CCC(C2)O3)c2cnn(-c3ccn[nH]3)c2n1 (stereo not drawn) + CN(C)c1ccc(Nc2c3ccc(NC(=O)CCN4CCCC4)cc3nc3cc(NC(=O)CCN4CCCC4)ccc23)cc1"
answer_label = "n"

[[record]]
molecule = "Nc1ccn(C2OC(CO)C(O)C2(F)F)c(=O)n1 (stereo not drawn) + CN(C)c1ccc(Nc2c3ccc(NC(=O)CCN4CCCC4)cc3nc3cc(NC(=O)CCN4CCCC4)ccc23)cc1"
answer_label = "n"

[[record]]
molecule = "CC1COCCN1c1cc(C2(O)CC3CCC(C2)O3)c2cnn(-c3ccn[nH]3)c2n1 (stereo not drawn) + Cc1[nH]c2ccc(F)cc2c1-c1nc2c3cccnc3c3ncccc3c2[nH]1"
answer_label = "n"

[[record]]
molecule = "C#Cc1c(F)ccc2cc(O)cc(-c3ncc4c(N5CC6CCC(C5)N6)nc(OCC56CCCN5CC(F)C6)nc4c3F)c12 (stereo not drawn) + CN(C)c1ccc(Nc2c3ccc(NC(=O)CCN4CCCC4)cc3nc3cc(NC(=O)CCN4CCCC4)ccc23)cc1"
answer_label = "n"

[[record]]
molecule = "CC1COCCN1c1cc(-c2ccnn2C)c2ccnc(-c3ccn[nH]3)c2n1 (stereo not drawn) + CN(C)c1ccc(Nc2c3ccc(NC(=O)CCN4CCCC4)cc3nc3cc(NC(=O)CCN4CCCC4)ccc23)cc1"
answer_label = "n"

[[record]]
molecule = "CCCS(=O)(=O)Nc1ccc(F)c(C(=O)c2c[nH]c3ncc(-c4ccc(Cl)cc4)cc23)c1F + Cc1cnc(CNC(=O)c2c(=O)c3ccc(N4CCCN(C)CC4)nc3n3c2sc2ccccc23)cn1"
answer_label = "n"

[[record]]
molecule = "C=CC(=O)N1CCN(c2nc(=O)n(-c3c(C)ccnc3C(C)C)c3nc(-c4c(O)cccc4F)c(F)cc23)C(C)C1 (stereo not drawn) + CN(C)c1ccc(Nc2c3ccc(NC(=O)CCN4CCCC4)cc3nc3cc(NC(=O)CCN4CCCC4)ccc23)cc1"
answer_label = "n"

[[record]]
molecule = "COc1ccc([C@@H](O)c2cc(-c3ncnc4cc(N5CCOCC5)ccc34)c(F)cc2Cl)nn1 + CN(C)c1ccc(Nc2c3ccc(NC(=O)CCN4CCCC4)cc3nc3cc(NC(=O)CCN4CCCC4)ccc23)cc1"
answer_label = "n"

[[record]]
molecule = "O=C(NO)c1cnc(N2CCN(S(=O)(=O)c3ccc4ccccc4c3)CC2)nc1 + Cc1cnc(CNC(=O)c2c(=O)c3ccc(N4CCCN(C)CC4)nc3n3c2sc2ccccc23)cn1"
answer_label = "y"

[[record]]
molecule = "CC1COCCN1c1cc(-c2ccnn2C)c2ccnc(-c3ccn[nH]3)c2n1 (stereo not drawn) + Cc1cnc(CNC(=O)c2c(=O)c3ccc(N4CCCN(C)CC4)nc3n3c2sc2ccccc23)cn1"
answer_label = "n"

[[record]]
molecule = "O=c1[nH]cc(F)c(=O)[nH]1 + CN(C)c1ccc(Nc2c3ccc(NC(=O)CCN4CCCC4)cc3nc3cc(NC(=O)CCN4CCCC4)ccc23)cc1"
answer_label = "n"

[[record]]
molecule = "O=C(NO)c1cnc(N2CCN(S(=O)(=O)c3ccc4ccccc4c3)CC2)nc1 + Cc1[nH]c2ccc(F)cc2c1-c1nc2c3cccnc3c3ncccc3c2[nH]1"
answer_label = "y"

[[record]]
molecule = "CC1COCCN1c1cc(C2(S(C)(=N)=O)CC2)nc(-c2ccnc3[nH]ccc23)n1 (stereo not drawn) + Cc1[nH]c2ccc(F)cc2c1-c1nc2c3cccnc3c3ncccc3c2[nH]1"
answer_label = "n"

[[record]]
molecule = "O=C(c1cc(Cc2n[nH]c(=O)c3ccccc23)ccc1F)N1CCN(C(=O)C2CC2)CC1 + Cc1cnc(CNC(=O)c2c(=O)c3ccc(N4CCCN(C)CC4)nc3n3c2sc2ccccc23)cn1"
answer_label = "n"

[[record]]
molecule = "COc1cccc2c1C(=O)c1c(O)c3c(c(O)c1C2=O)CC(O)(C(=O)CO)CC3OC1CC(N)C(O)C(C)O1 (stereo not drawn) + Cc1cnc(CNC(=O)c2c(=O)c3ccc(N4CCCN(C)CC4)nc3n3c2sc2ccccc23)cn1"
answer_label = "n"

[[record]]
molecule = "CC(C)n1c(=O)n(C)c2cnc3cc(F)c(-c4ccc(OCCCN5CCCCC5)nc4)cc3c21 + Cc1[nH]c2ccc(F)cc2c1-c1nc2c3cccnc3c3ncccc3c2[nH]1"
answer_label = "n"

